measuredOn: human GPVI extracellular region-human Fc fusion protein (hGPVI-hFc) (human)
Sequence (chain, as listed by the source limits assumed): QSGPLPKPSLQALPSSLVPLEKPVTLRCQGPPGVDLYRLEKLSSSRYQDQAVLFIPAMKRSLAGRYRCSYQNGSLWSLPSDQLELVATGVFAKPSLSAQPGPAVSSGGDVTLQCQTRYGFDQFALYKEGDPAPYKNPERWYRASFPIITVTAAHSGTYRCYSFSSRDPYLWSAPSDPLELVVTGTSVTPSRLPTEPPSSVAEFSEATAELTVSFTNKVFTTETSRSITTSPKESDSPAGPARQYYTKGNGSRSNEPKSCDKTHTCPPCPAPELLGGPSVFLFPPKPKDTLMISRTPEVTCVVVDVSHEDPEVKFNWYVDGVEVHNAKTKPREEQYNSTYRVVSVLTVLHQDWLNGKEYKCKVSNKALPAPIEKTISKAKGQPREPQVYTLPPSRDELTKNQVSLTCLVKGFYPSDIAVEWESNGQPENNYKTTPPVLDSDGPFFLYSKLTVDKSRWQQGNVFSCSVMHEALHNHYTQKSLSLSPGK
assay: SPR (BIACORE3000) as in Example 5
recordedEndpoint: KD (Relative value) against F1232-37-2 (relative to KD of F1232-37-2)
Please reply with the value in numeric form only.

F1245-7-1 (antibody, V domains shown) VH: QVQLQQPGAELVKPGASVKLSCKASGYTFTSYWMHWVKQRPGQGLEWIGMIHPNSGSTNYNEKFKSKATLTVDKSSSTAYMQLSSLTSEDSAVYYCASPVTAVVEYYFDYWGQGTTLTVSS VL: SIVMTQTPKFLLVSAGDRVTITCKASQSVSNDVAWYQQKPGQSPKLLIYYASNRYTGVPDRFTGSGYGTDFTFTISTVQAEDLAVYFCQQDYSSLTFGSGTKLEIKR	0.00293

Dear colleague, please send me the reported KD (Relative value) against F1232-37-2 (relative to KD of F1232-37-2) for F1246-1-1 (antibody, V domains shown) VH: EVQLVESGGDLVKPGGSLKLSCAASGFTFSSYGMSWVRQTPDKRLEWVATISNGGTYTYYPDSVKGRFTISRDNAKNTLYLQMSSLKSDDTAMYYCGRLRDYYAMDYWGQGTSVTVSS VL: DIVLTQSPASLAVSLGQRATISCRASESVDSYGNSFMHWYQQKPGQPPKLLIYRASNLESGIPARFSGSGSRTDFTLTINPVEADDVATYYCQQSNEDPWTFGGGTKLEIKR when you can.
0.884
